Below, each of the compounds is paired with its reported IC50 value.
Molecular target: Induced myeloid leukemia cell differentiation protein Mcl-1 (Homo sapiens) (UniProt Q07820)
Sequence (Q07820 whole entry, looked up): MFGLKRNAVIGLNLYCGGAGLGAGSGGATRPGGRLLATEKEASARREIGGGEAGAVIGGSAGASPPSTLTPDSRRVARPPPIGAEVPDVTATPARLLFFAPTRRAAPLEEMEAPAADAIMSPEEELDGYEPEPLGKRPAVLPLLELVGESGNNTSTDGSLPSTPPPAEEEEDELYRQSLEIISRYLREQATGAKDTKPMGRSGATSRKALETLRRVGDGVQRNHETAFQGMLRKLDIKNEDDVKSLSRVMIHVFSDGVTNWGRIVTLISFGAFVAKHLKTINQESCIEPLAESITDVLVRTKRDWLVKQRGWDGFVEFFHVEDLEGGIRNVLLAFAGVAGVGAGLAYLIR
Assay: Mcl-1/Noxa binding inhibitor potency, dose response, biochemical, TR-FRET (AID 1417)
Conditions: Mcl-1/Noxa peptide interaction, cell-free TR-FRET (terbium/rhodamine), 2 h; measured here: absolute IC50

{"columns": ["Smiles text", "Rel", "IC50 (nM)"],
 "data": [
  ["CCNc1ccc(Br)cc(C(=O)/C=C/c2ccc3c(c2)OCO3)c1=O", "=", 499],
  ["COc1cc(-c2ccc(Nc3ccccc3C(=O)O)c(OC)c2)ccc1Nc1ccccc1C(=O)O", "<", 400],
  ["COc1ccccc1C(=O)N=Nc1c(O)[nH]c2ccc([N+](=O)[O-])cc12", "=", 4720],
  ["Clc1cccc(N/N=C/c2ccc(N3CCOCC3)s2)c1", "<", 400],
  ["Cc1cccc(NC(=O)CSc2nnc(-c3ccco3)c(-c3ccco3)n2)c1", "=", 6580]
]}
